test system: HCT-116; assay: NCI tumour cell line growth inhibition, 48 h
Active and inactive are the calls of the source. No stated cut-off is given here; in the data, active = GI50 up to about 1.1 µM and inactive = higher.
# output must be one of t = active, f = inactive

Consider the worked cases shown below.
CCOC(=O)/C=C/[C@H](O)[C@@H](O)/C=C/C(=O)OCC | f
O=C(CC(C(=O)c1ccco1)c1ccsc1)c1ccco1 (stereo unspecified) | f
COc1ccc(C2CCc3cc4c(cc3/C2=N/OC(C)=O)OCO4)cc1OC (stereo unspecified) | f
Cc1ccccc1C1=[N+]([O-])c2ccccc2C1=O | f
Cn1c2ccc(Cl)cc2c2ccc3c(c21)C(=O)C=CC3=O | f
O=C(CCc1nnc2s/c(=C\c3ccccc3)c(=O)n12)Nc1cc(Cl)ccc1Cl | f
Cc1nc(C)c(N2CCN(CN)CC2)c(O)n1 | f
C[C@H](CN1CC(=O)NC(=O)C1)N1CC(=O)NC(=O)C1 | f

Prompt: Record lookup: outcome of this test for C/C=C1/C=CC2c3[nH]c4ccccc4c3CCN2C1 (stereo unspecified) ?
Completion: f

Prompt: Also CCCCCCCCP(=O)(O)OP(=O)(O)OCC1OC(n2ccc(N)nc2=O)C(O)C1O (stereo unspecified) , if possible.
Completion: f

----------
tested on: SNB-19; test: NCI tumour cell line growth inhibition, 48 h
The source made the active and inactive calls. Rule as the data show it: active = GI50 up to about 1.1 µM and inactive = higher.
# output must be one of active, inactive

Prompt: Record lookup: outcome of this test for CC(C)=CCC[C@@H](C)C1=C(Nc2ccccc2Cl)C(=O)C(C)=C(O)C1=O ?
Completion: inactive

Prompt: Also O=C(NS(=O)(=O)Nc1ccc(Cl)cc1)OCc1ccc(Cl)cc1Cl , if possible.
Completion: inactive

Prompt: Also Oc1cc(O)c(Oc2cccc(O)c2O)c(O)c1 , if possible.
Completion: inactive

Prompt: Also O=C1Oc2ccccc2C(=O)/C1=C/NC(=S)NCc1ccccc1 , if possible.
Completion: inactive

Prompt: Also O=C1C=C(N2CC2)C(=O)C=C1N1CC1 , if possible.
Completion: active

Prompt: Also Cc1ccccc1NC(=O)CC(=O)NNCC(=O)Nc1nnc(-c2ccccc2)s1 , if possible.
Completion: inactive

Prompt: Also CC1CC(=O)N(N(C)C)C2(C#N)C(=O)N=C(N)C12C#N (stereo not given) , if possible.
Completion: inactive

Prompt: Also COc1ccc2[nH]c3c(C)c4ccnc(NCCCN(C)CCCNc5ccc6nnn7c8ccccc8c(=O)c5c67)c4c(C)c3c2c1 , if possible.
Completion: active

Prompt: Also CCCCCCCCCCCCCS(=O)(=O)NCC(N)=O , if possible.
Completion: inactive

Prompt: Also C/C(=N\NC(=O)c1cccnc1)c1cccc(/C(C)=N/NC(=O)c2cccnc2)n1.CC(=O)[O-].CC(=O)[O-].[Zn+2] , if possible.
Completion: inactive

----------
system: HCC 2998; experiment: NCI tumour cell line growth inhibition, 48 h
Active and inactive are the calls of the source. Cut-off read from the data, not from the text of the source: active = GI50 up to about 1.1 µM and inactive = higher.
# output must be one of 1.0 for active, 0.0 for inactive

COc1cc2c[n+](C)c3c4cc5c(cc4ccc3c2cc1OC)OCO5 [NITIDINE CHLORIDE] | 0.0
COc1cc(CC(=O)c2ccc3c(c2)OCO3)cc(OC)c1OC | 0.0
COC(=O)C1[C@H](c2cc(OC)c(OC)c(OC)c2)OC(=O)C1(C(=O)OC)C(=O)c1ccc2c(c1)OCO2 (some centres undefined) | 0.0
Nc1ccc(/N=N/c2ccccc2)cc1 | 0.0
Cc1ccccc1NC(=O)CC(=O)NNCC(=O)Nc1nnc(-c2ccccc2)s1 | 0.0
COc1cc(C2C3=C(COC3=O)OC(C)(C)Oc3cc4c(cc32)OCO4)cc(OC)c1O (centres undefined) | 0.0
Cc1cccc(NC2=NC(=O)C(CC(=O)Nc3ccccc3Cl)S2)c1 (centres undefined) | 0.0
CCOC(=O)/C=C(/C(=O)OCC)n1cc(C)c(=O)n(Cc2cnnn2COCCOC(C)=O)c1=O | 0.0

Prompt: Record lookup: outcome of this test for CCOC(=O)C1(C(=O)OCC)CSC1 ?
Completion: 1.0

Prompt: Also CCCCC1C(=O)N(c2ccc(S(=O)(=O)Nc3ccccn3)cc2)N(c2ccc(O)c(C(=O)O)c2)C1=O (centres undefined) , if possible.
Completion: 0.0

Prompt: Also N/C(=N\O)N/N=C/c1cc(I)cc(I)c1O , if possible.
Completion: 0.0

Prompt: Also CC1(C)CC(=O)C(Cc2ccccc2)(Cc2ccccc2)C(=O)C1 , if possible.
Completion: 0.0

Prompt: Also COC(=O)c1c(C#C[Si](C)(C)C)c(C#C[Si](C)(C)C)c(C#C[Si](C)(C)C)c(C#C[Si](C)(C)C)c1C(=O)OC , if possible.
Completion: 0.0

Prompt: Also COC(=O)/C(=C\Nc1cccc(C)n1)S(=O)(=O)c1ccc(C)cc1 , if possible.
Completion: 0.0

Prompt: Also N#CCCN(c1ccc(/C=N/c2nc(-c3ccccc3)cs2)cc1)S(=O)(=O)c1ccccc1 , if possible.
Completion: 0.0

Prompt: Also COc1cc(S(=O)(=O)Nc2ccc(-c3csc(N4C(=O)C(Cl)C4c4cccs4)n3)cc2)ccc1Cl (centres undefined) , if possible.
Completion: 0.0

Prompt: Also O=[N+]([O-])C(=C/C1CCCCC1)/C(=C\C1CCCCC1)[N+](=O)[O-] , if possible.
Completion: 0.0

Prompt: Also CCCCC1(OC(=O)CCC(=O)O)CCC2(CCC(C)C(C/C=C(C)/C=C/C(O)C(C)/C=C/C(=O)O)O2)OC1CC/C(C)=C/C(=O)O (centres undefined) , if possible.
Completion: 0.0

Prompt: Also CC(C)=CCC/C(C)=C/CC/C(C)=C/CC/C=C(\C)CC/C=C(\C)CCC1SC1(C)C (centres undefined) , if possible.
Completion: 0.0

----------
Readings of GI50 for the listed compounds
test system: TK-10; experiment: NCI tumour cell line growth inhibition, 48 h
Active and inactive are the calls of the source. No stated cut-off is given here; in the data, active = GI50 up to about 1.1 µM and inactive = higher.

The cases that follow already have their GI50 on record.
O=C(CC(C(=O)c1ccco1)c1ccsc1)c1ccco1 (configuration not stated) | > 100 µM (inactive)
CCC(C#N)N(Cc1ccc(CN(C(=O)c2ccccc2)C(C#N)CC)cc1)C(=O)c1ccccc1 (configuration not stated) | 12.9 µM (inactive)
C/C=C/C1OC(O)(C(C)C(O)[C@H](C)C2OC(=O)/C(OC)=C/C(C)=C/[C@@H](C)[C@@H](O)[C@@H](C)C(O)C(C)C/C(C)=C/C=C/C2OC)C[C@@H](OC2CC(O)C(OC(N)=O)C(C)O2)C1C (some centres not stated) | < 0.01 µM (active)
O=C(CC(=O)c1ccccc1)C(=O)NC12CC3CC(CC(C3)C1)C2 | > 100 µM (inactive)
N#CC(Cc1ccccc1)N(CCC1=CCCCC1)C(c1ccccc1)c1ccccc1 (configuration not stated) | > 100 µM (inactive)
O=C(O)CCC(=O)OC1N=C(c2ccccc2Cl)c2cc([N+](=O)[O-])ccc2NC1=O (configuration not stated) | 86.7 µM (inactive)
CCC(=O)Nc1ncnc2ncn(C(=O)CC)c12 | > 100 µM (inactive)
CCn1cc(/C=C/C(C)c2cn(CC)c(=O)[nH]c2=O)c(=O)[nH]c1=O (configuration not stated) | > 100 µM (inactive)
Cc1ccccc1NC(=O)CC(=O)NNCC(=O)Nc1nnc(-c2ccccc2)s1 | 42.7 µM (inactive)
CCCc1nc(Cl)c(Cl)c(Cl)n1 | > 71.9 µM (inactive)

Turning to the following compound.
Prompt: For the compound shown here, ClCc1c(-c2ccccc2)nn(-c2ccccc2)c1CCl , give the reported GI50.
Completion: 14.6 µM (inactive)

----------
test system: OVCAR-8; assay: NCI tumour cell line growth inhibition, 48 h
Activity calls are given as the source filed them. Cut-off read from the data, not from the text of the source: active = GI50 up to about 1.1 µM and inactive = higher.
Readings of GI50 for the listed compounds

The cases that follow already have their GI50 on record.
CC1CC(=O)N(N(C)C)C2(C#N)C(=O)N=C(N)C12C#N (configuration not stated) | > 100 µM (inactive)
COP(=O)(OC)[C@@](O)(c1ccccc1)[C@@H](O)[C@@H](O)c1ccccc1 | > 100 µM (inactive)

Prompt: Item: O=C(NN1C(=O)C(Cl)C1c1cccc(Cl)c1)c1ccccc1O (configuration not stated) Test system: OVCAR-8 Read-out: GI50 Value: ?
Completion: > 100 µM (inactive)

Prompt: Also CC(=O)C1=C(O)/C(=C\c2ccco2)OC1=O , if possible.
Completion: > 10 µM (inactive)

----------
system: HT-29; assay: NCI tumour cell line growth inhibition, 48 h
Activity calls are given as the source filed them. No stated cut-off is given here; in the data, active = GI50 up to about 1.1 µM and inactive = higher.
# output must be one of active, inactive

Consider the worked cases shown below.
[BH3-][P+]1(CC[P@@+]([BH3-])(c2ccccc2)c2ccccc2OC)[C@@H](C)[C@@H](O)[C@H](O)[C@@H]1C (some centres undefined) | inactive
CSc1ccc(NC(=O)C2CCCCC2C(=O)O)cc1 (centres undefined) | inactive
COC(=O)c1c(C#C[Si](C)(C)C)c(C#C[Si](C)(C)C)c(C#C[Si](C)(C)C)c(C#C[Si](C)(C)C)c1C(=O)OC | inactive

Prompt: Record lookup: outcome of this test for Cc1cccc2c(N)c3cccc(C(=O)NCC[N+](C)(C)Cc4sc(N5CCOCC5)nc4[N+](=O)[O-])c3nc12 ?
Completion: active
